Give measured GI50 for each item. Keep answers brief.
- Test system: OVCAR-8 ovarian
- experimental_details: NCI tumour cell line growth inhibition, 48 h

Guide cases for GI50, answers given:
molecule="C=C1CCC2C3(C)COC(c4ccc(F)cc4)OC3CCC2(C)C1C/C=C1/C(=O)OCC1O (centres undefined)" measurement_target="OVCAR-8 ovarian" value_reported="1540 nM"
molecule="CN(C)CCOc1ccc(C(=O)C2[C@H](c3ccc(Cl)cc3)[C@@H](c3ccccc3)NC23C(=O)Nc2ccccc23)cc1 (some centres undefined)" measurement_target="OVCAR-8 ovarian" value_reported="4560 nM"
molecule=O=c1[nH]c2ccccc2cc1CSc1ccc(Nc2nccc(-c3ccc(Cl)cc3)n2)cc1 measurement_target="OVCAR-8 ovarian" value_reported="1600 nM"

input: Looking for the measured GI50 of "FC(F)(F)CN1CCN(CCn2c(C(F)(F)F)cc3c(Cl)ncnc32)CC1" , can you help?
output: 3200 nM

* * *

- System: MDA-MB-468 breast
- experimental_details: NCI tumour cell line growth inhibition, 48 h
Use 3 µM as the dividing line for TGI, with the line itself on the Yes side and lower values as No.

smiles_repr=N#C/C(=C\c1ccc(-c2ccc(F)cc2)o1)C(=O)Nc1ncc(Cc2ccc(Cl)cc2Cl)s1 class=Yes
smiles_repr=FC(F)(F)CN1CCN(CCn2c(C(F)(F)F)cc3c(Cl)ncnc32)CC1 class=Yes
smiles_repr=COC12C=C/C(=C(/C(=O)OCc3ccncn3)C(=O)CCCCCCCCC3(OC)C=C/C(=C(/C(=O)OCc4ccncn4)C(=O)CCCCCCCC1)O3)O2 class=No
smiles_repr=COc1c(O)c2ccccc2c2cc(O)ccc12 class=Yes
smiles_repr=CCOC(=O)c1c(NC(=O)c2ccc(C(F)(F)F)cc2)sc2c3c(ccc12)OCN(C)C3 class=Yes

input: Is reported TGI greater than or equal to 3 µM here: "Cc1cc(Cl)n2c(nc3ccccc32)c1C#N"
output: No

input: Likewise for "O=C(Nc1ccccc1)c1cc2c(cc1Cl)Sc1nccn1S2(=O)=O" ?
output: Yes

input: Likewise for "C(=N\Nc1ncc(-c2cc3cc4c(cc3o2)OCO4)s1)/c1c[nH]c2ccccc12" ?
output: Yes

input: Likewise for "CCN(CC)CCCCCCCCNc1c2ccc(Cl)cc2nc2ccc(OC)cc12" ?
output: No

input: Likewise for "Cn1cc(-c2cc(N)n3nc(-c4cn(C)c5ccccc45)cc3n2)c2cc(Cl)ccc21" ?
output: Yes

* * *

- System: MDA-MB-468 breast
- experimental_details: NCI tumour cell line growth inhibition, 48 h; in the data active = GI50 below about 0.43 µM; inactive = the rest
Lab note: assign the record to one of active, inactive

input: Field: outcome | Entry: "C=C1C(=O)O[C@@H]2[C@@H]3O[C@@](C)(CC/C=C(\C)CCC[C@@H]2C)[C@H](O)C[C@@H]13"
output: inactive

input: Likewise for "CCc1cc(C(N)=O)ccc1-n1nc(C(C)C)c2c(-n3cnc(-c4cnn(C)c4)c3)ccnc21" ?
output: inactive

* * *

- Tested on: HS 578T breast
- experimental_details: NCI tumour cell line growth inhibition, 48 h
readout: GI50

Guide cases for GI50, answers given:
smiles_repr=O=C(/C=C/c1cccc(OCc2ccccc2)c1)c1nc2ccccc2[nH]1 value_reported="20.3 µM"
smiles_repr=Cn1cc(-c2cc(N)n3nc(-c4cn(C)c5ccccc45)cc3n2)c2cc(Cl)ccc21 value_reported="3.3 µM"
smiles_repr=O=c1[nH]c2ccccc2cc1CSc1ccc(Nc2nccc(-c3ccc(Cl)cc3)n2)cc1 value_reported="0.621 µM"

input: Looking for the measured GI50 of "FC(F)(F)CN1CCN(CCn2c(C(F)(F)F)cc3c(Cl)ncnc32)CC1" , can you help?
output: 14.2 µM
